test system: HepG2; assay: cytotoxicity call (relative viability < 0.9); settings: 10 µM
Among all 39,000 compounds or so, about 3,300 (8.5%) were called active. This is one part of a sample in which actives are shown more often than they occur.
Would you mind answering with one of these outcomes? 1 (yes) = active, 0 (no) = inactive

The following compounds have reported results that may help.
CCCCC[C@H]1C[C@H](O[C@H]2O[C@@H](CO)[C@@H](O)[C@@H](O)[C@@H]2O)CC(=O)O1 | 0 (no)
C[C@@H]1CCCCO[C@H](CN(C)S(=O)(=O)c2ccc(F)cc2)[C@H](C)CN([C@H](C)CO)C(=O)c2cc(NC(=O)Nc3cccc4ccccc34)ccc2O1 | 0 (no)
CC(C)NC(=O)Nc1ccc2c(c1)CC(=O)N([C@H](C)CO)C[C@@H](C)[C@@H](CN(C)S(=O)(=O)c1ccc(Cl)cc1)O2 | 0 (no)
COc1ccc(S(=O)(=O)Nc2ccc3c(c2)C(=O)N([C@H](C)CO)C[C@@H](C)[C@@H](CN(C)Cc2ccc(Oc4ccccc4)cc2)O3)cc1 | 0 (no)

Q: Could you check what this test reported for `C[C@H](CO)N1C[C@H](C)[C@H](CN(C)C(=O)c2ccccc2)OCCCC[C@H](C)Oc2ccc(NC(=O)Cc3ccccc3)cc2C1=O` ?
Ans: 0 (no)

Q: Could you check what this test reported for `COc1ccc(S(=O)(=O)Nc2ccc3c(c2)C(=O)N([C@@H](C)CO)C[C@H](C)[C@@H](CN(C)Cc2ccc(Oc4ccccc4)cc2)O3)cc1` ?
Ans: 0 (no)

Q: Could you check what this test reported for `Cc1cc(Cn2c(=O)n(Cc3cnc(C)s3)c(=O)c3cc(S(=O)(=O)NC4(C)CC4)ccc32)n(C)n1` ?
Ans: 0 (no)

Q: Could you check what this test reported for `C[C@@H]1CN([C@H](C)CO)C(=O)Cc2cc(NC(=O)Nc3ccc(C(F)(F)F)cc3)ccc2O[C@H]1CN(C)S(C)(=O)=O` ?
Ans: 0 (no)

Q: Could you check what this test reported for `COC(=O)Nc1nc2cc(C(=O)c3ccc(F)cc3)ccc2[nH]1` ?
Ans: 1 (yes)

Q: Could you check what this test reported for `COc1ccc(S(=O)(=O)Nc2ccc3c(c2)C(=O)N([C@@H](C)CO)C[C@@H](C)[C@@H](CN(C)Cc2ccc(Oc4ccccc4)cc2)O3)cc1` ?
Ans: 1 (yes)

Q: Could you check what this test reported for `C[C@H]1CN([C@@H](C)CO)C(=O)c2cc(NS(=O)(=O)c3ccccc3)ccc2O[C@@H]1CN(C)Cc1ccc(Oc2ccccc2)cc1` ?
Ans: 0 (no)

Q: Could you check what this test reported for `COc1ccc(S(=O)(=O)Nc2ccc3c(c2)C(=O)N([C@@H](C)CO)C[C@@H](C)[C@H](CN(C)Cc2ccc(Oc4ccccc4)cc2)O3)cc1` ?
Ans: 1 (yes)

Q: Could you check what this test reported for `COc1ccc(S(=O)(=O)Nc2ccc3c(c2)C(=O)N([C@H](C)CO)C[C@H](C)[C@H](CN(C)Cc2ccc(Oc4ccccc4)cc2)O3)cc1` ?
Ans: 0 (no)

Q: Could you check what this test reported for `C[C@@H]1CN([C@H](C)CO)C(=O)Cc2cc(NC(=O)Nc3ccc(C(F)(F)F)cc3)ccc2O[C@@H]1CN(C)S(=O)(=O)c1ccc(Cl)cc1` ?
Ans: 1 (yes)

Q: Could you check what this test reported for `C[C@@H]1CN([C@@H](C)CO)C(=O)c2cc(NC(=O)Nc3ccc(F)cc3)ccc2O[C@@H](C)CCCCO[C@H]1CN(C)Cc1ccc(C(=O)O)cc1` ?
Ans: 0 (no)

Q: Could you check what this test reported for `C[C@@H]1CN([C@H](C)CO)C(=O)c2cc(NS(C)(=O)=O)ccc2O[C@@H]1CN(C)C(=O)Nc1ccc(F)cc1` ?
Ans: 0 (no)

Q: Could you check what this test reported for `O=C(NCCCN1CCOCC1)c1cccnc1` ?
Ans: 0 (no)

Q: Could you check what this test reported for `C[C@@H]1CN([C@@H](C)CO)C(=O)Cc2cc(NC(=O)NC3CCCCC3)ccc2O[C@H]1CN(C)Cc1ccc(Cl)c(Cl)c1` ?
Ans: 0 (no)

Q: Could you check what this test reported for `C[C@H](CO)N1C[C@H](C)[C@H](CN(C)S(=O)(=O)c2ccc(Cl)cc2)Oc2ccc(NC(=O)Nc3ccc(C(F)(F)F)cc3)cc2CC1=O` ?
Ans: 1 (yes)

Q: Could you check what this test reported for `C[C@@H]1CN([C@@H](C)CO)C(=O)c2cc(NS(=O)(=O)c3ccccc3)ccc2O[C@H]1CN(C)Cc1ccc(Oc2ccccc2)cc1` ?
Ans: 0 (no)

Q: Could you check what this test reported for `C[C@@H]1CN([C@H](C)CO)C(=O)Cc2cc(NC(=O)NC3CCCCC3)ccc2O[C@H]1CN(C)Cc1ccc(Cl)c(Cl)c1` ?
Ans: 0 (no)

Q: Could you check what this test reported for `C[C@@H]1CN([C@@H](C)CO)S(=O)(=O)c2ccc(C#C[C@@H](C)O)cc2O[C@H]1CN(C)C(=O)Nc1ccccc1` ?
Ans: 0 (no)

Q: Could you check what this test reported for `C[C@@H]1CCCCO[C@H](CN(C)CC2CCCCC2)[C@H](C)CN([C@@H](C)CO)C(=O)c2cc(NC(=O)Cc3ccccc3)ccc2O1` ?
Ans: 0 (no)

Q: Could you check what this test reported for `COC(=O)CNC(=O)c1ccc(F)cc1` ?
Ans: 0 (no)

Q: Could you check what this test reported for `Cc1noc(C)c1S(=O)(=O)N(C)C[C@H]1OCCCC[C@H](C)Oc2ccc(N(C)C)cc2C(=O)N([C@H](C)CO)C[C@@H]1C` ?
Ans: 0 (no)

Q: Could you check what this test reported for `COC(=O)Nc1nc2cc(C(=O)c3ccccc3)ccc2[nH]1` ?
Ans: 1 (yes)

Q: Could you check what this test reported for `O=C(CCCCCNC(=O)OC[C@H]1C(=O)O[C@@H](Cc2ccccc2)[C@H]2[C@H]3C(=CC(=O)[C@@H]3C3CC3)CN21)NO` ?
Ans: 0 (no)

Q: Could you check what this test reported for `C[C@@H]1CN([C@H](C)CO)C(=O)Cc2cc(NC(=O)Nc3ccc(C(F)(F)F)cc3)ccc2O[C@@H]1CN(C)S(C)(=O)=O` ?
Ans: 0 (no)

Q: Could you check what this test reported for `C[C@H]1CN([C@@H](C)CO)C(=O)Cc2cc(NC(=O)Nc3ccc(C(F)(F)F)cc3)ccc2O[C@H]1CN(C)S(C)(=O)=O` ?
Ans: 0 (no)
